Give measured fluorescence slope for each item. Keep answers brief.
Target: Muscarinic acetylcholine receptor M4 (Homo sapiens) (UniProt P08173)
Sequence (P08173 whole entry, looked up): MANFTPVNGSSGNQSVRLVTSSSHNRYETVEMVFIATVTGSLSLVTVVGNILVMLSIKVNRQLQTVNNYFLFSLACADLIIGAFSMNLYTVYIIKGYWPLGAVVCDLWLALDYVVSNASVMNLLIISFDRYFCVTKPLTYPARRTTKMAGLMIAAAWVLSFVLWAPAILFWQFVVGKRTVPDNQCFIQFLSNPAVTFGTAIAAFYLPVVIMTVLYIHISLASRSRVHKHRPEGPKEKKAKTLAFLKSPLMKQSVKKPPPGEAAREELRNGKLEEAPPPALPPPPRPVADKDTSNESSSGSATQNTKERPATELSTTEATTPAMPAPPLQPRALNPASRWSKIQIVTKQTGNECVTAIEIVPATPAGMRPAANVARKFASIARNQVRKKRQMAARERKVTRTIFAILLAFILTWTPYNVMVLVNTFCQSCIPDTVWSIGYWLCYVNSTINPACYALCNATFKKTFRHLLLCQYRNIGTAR
Assay: M4-linked GIRK flux change, two-sided – cell-based, HEK293 M4/GIRK, thallium flux, BTC-AM, M4 allosteric agonist project, primary screen (AID 625);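 note: thallium influx through GIRK channels coupled to M4 in HEK293 cells with BTC-AM dye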
Conditions: at 10 µM, actives lie on both sides
One number for each entry.

Below: 5 compounds and their reported fluorescence slope.
compound	numeric.value
Cc1nc(/N=C\N(C)C)sc1C(=O)Nc1ccccc1	0.00595
C=CS(=O)(=O)c1ccc(Oc2ccc(S(=O)(=O)C=C)cc2)cc1	0.00487
CCCC(=O)Nc1ccc(NC(=O)c2cccs2)cn1	0.00548
O=C(COc1ccc(Cl)cc1)Nc1nc(-c2cccs2)cs1	0.00605
O=C(COc1nnc2ccccn12)N1CCN(S(=O)(=O)c2ccccc2)CC1	0.00653

Would you be so kind as to report fluorescence slope for each listed record?
1. CC(C)C(=O)Nc1cccc(NC(=O)c2cccnc2)c1
2. COc1ccc(-c2cn3c(C)c(C(=O)Nc4cc(NC(C)=O)ccc4OC)sc3n2)cc1
3. NC1=NC(c2ccc(Br)cc2)n2c(nc3ccccc32)N1 (stereo not given)
4. Cc1c(C(=O)NCc2ccccn2)oc2ccccc12

Result:
0.00325
0.00656
0.00498
0.00478

* * *

Test: endothelial E-selectin expression blockers – imaging, HUVEC, immunofluorescence, MLSMR starter and 10KST1 sets, primary screen (AID 487);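 note: signal is fraction of cell area covered by stained E-selectin grains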
Conditions: HUVEC TNFalpha-induced E-selectin immunofluorescence imaging, at 2 µM; active compounds read high
Threshold rule: inhibition greater than or equal to -60% is t; below that, f.

Example cases with answers are listed next.
compound	label
CCOc1ccccc1NS(=O)(=O)c1c(C)noc1C	t
O=C(CSc1nnc(-c2ccccc2)o1)NC1CCCCC1	t
Cc1nn(-c2nc3ccccc3s2)c(C)c1Oc1ccccc1O	f
COc1cc(OC)c(OC)cc1CN(C)CCc1ccccn1	f
COc1ccc(C2C=C(c3ccccc3)Nc3ncnn32)cc1 (configuration not stated)	t
CCCCOC(=O)C1=C(C)Nc2ncnn2C1c1cccc(OC)c1OC (configuration not stated)	f

Ask: Item CCOc1ccccc1C1N(c2ccc(F)cc2)C(=O)C2CCCN21 (configuration not stated) with inhibition of -60% or above?
Result: t

Ask: Item "Nc1nonc1-n1nnc(C(=O)c2ccccc2)c1-c1ccccc1" with inhibition of -60% or above?
Result: t

Ask: Item "O=c1oc2c3c4c(cc2cc1-c1nc2ccccc2[nH]1)CCCN4CCC3" with inhibition of -60% or above?
Result: t

Ask: Item "COc1ccc(N2C(=O)c3cccc4cccc(c34)C2=O)nn1" with inhibition of -60% or above?
Result: f

Ask: Item FC(F)(F)c1ccc(Sc2nnc(-c3cccs3)n2CC2CCCO2)nc1 (configuration not stated) with inhibition of -60% or above?
Result: f

Ask: Item "FC(F)Oc1cccc2cccnc12" with inhibition of -60% or above?
Result: t

Ask: Item "COc1ccccc1OCc1ccc(C(=O)N2CCN(C(=O)c3ccco3)CC2)cc1" with inhibition of -60% or above?
Result: f

Ask: Item COc1ccc(C2C(C(=O)c3sc(C)nc3C)=C(O)C(=O)N2CCN(C)C)cc1 (configuration not stated) with inhibition of -60% or above?
Result: t

Ask: Item "COc1cccc(C(=O)Nc2c(C(N)=O)oc3ccccc23)c1" with inhibition of -60% or above?
Result: t

Ask: Item CCOC(=O)c1ccc(NC2OC(=O)c3ccccc32)cc1 (configuration not stated) with inhibition of -60% or above?
Result: f

Ask: Item "COCCNc1nc(SCC(=O)N2CCN(c3ccccc3)CC2)nc2ccccc12" with inhibition of -60% or above?
Result: f

Source: PubChem BioAssay
